Provenance of the data: the RNAGym collection of RNA variant scans (doi:10.7554/elife.80360)

B1: CPEB3 Ribozyme (parent)
chain: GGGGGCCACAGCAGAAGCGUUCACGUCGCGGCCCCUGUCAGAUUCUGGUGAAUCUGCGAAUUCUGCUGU

- Variants of: B1
- Protocol: self-cleavage, relative activity (ratio to wild type); higher = more cleavage; co-transcriptional
Cut-off 0.7 on self-cleavage, inclusive. At or above means Satisfied; below means Not satisfied.

Mutation label: A15G G68C
Class assignment: Satisfied

Mutation label: G41U A52G
Class assignment: Satisfied

Mutation label: C33U A60U
Class assignment: Not satisfied

Mutation label: A60G C63G
Class assignment: Not satisfied

Mutation label: A15U C32G
Class assignment: Not satisfied

Mutation label: G2U A23C
Class assignment: Not satisfied

Mutation label: A42G G65A
Class assignment: Not satisfied

Mutation label: G1C A23G
Class assignment: Not satisfied
